target: Tyrosine-protein kinase JAK2 (Homo sapiens, UniProt O60674); assay: Binding affinity to wild type JAK2 JH2 (unknown origin)
Sequence (O60674 whole entry): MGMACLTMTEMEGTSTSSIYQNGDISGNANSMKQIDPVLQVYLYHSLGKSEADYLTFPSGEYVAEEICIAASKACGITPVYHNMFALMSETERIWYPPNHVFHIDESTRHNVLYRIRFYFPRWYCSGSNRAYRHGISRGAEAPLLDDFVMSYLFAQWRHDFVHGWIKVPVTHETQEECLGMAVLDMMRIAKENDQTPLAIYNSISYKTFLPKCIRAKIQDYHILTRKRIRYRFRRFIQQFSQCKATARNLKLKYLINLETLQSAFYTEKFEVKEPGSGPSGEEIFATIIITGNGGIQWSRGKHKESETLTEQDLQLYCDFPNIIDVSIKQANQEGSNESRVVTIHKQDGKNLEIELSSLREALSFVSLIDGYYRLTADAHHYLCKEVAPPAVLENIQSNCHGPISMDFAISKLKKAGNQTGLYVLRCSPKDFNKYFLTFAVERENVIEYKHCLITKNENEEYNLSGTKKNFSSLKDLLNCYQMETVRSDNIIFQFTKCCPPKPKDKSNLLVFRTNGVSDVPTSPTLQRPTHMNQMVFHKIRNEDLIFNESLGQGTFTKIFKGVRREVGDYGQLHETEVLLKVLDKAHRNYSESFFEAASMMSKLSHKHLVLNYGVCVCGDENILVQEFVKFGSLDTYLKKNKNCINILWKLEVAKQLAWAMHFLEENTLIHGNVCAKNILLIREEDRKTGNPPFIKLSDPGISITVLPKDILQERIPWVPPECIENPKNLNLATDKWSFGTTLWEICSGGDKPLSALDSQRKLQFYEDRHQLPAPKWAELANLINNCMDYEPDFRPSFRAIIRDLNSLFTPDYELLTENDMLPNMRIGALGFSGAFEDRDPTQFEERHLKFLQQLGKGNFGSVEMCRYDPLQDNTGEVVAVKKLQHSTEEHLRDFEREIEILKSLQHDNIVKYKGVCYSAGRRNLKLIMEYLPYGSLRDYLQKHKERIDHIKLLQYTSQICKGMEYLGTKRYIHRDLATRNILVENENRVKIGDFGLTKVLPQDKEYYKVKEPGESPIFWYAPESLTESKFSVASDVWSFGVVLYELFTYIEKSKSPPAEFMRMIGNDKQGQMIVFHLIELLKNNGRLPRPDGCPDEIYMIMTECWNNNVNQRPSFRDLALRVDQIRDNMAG
parameter: Kd (µM)
Field: numeric (µM). Do not append units.

// map "Nc1nc(CSc2nnc(NCC3CCCC3)s2)nc(Nc2ccc(F)cc2)n1" to recorded Kd (system: Tyrosine-protein kinase JAK2 (Homo sapiens, UniProt O60674))
149
